# EXPERIMENT_NOTES: Comparison of bioavailability of Compound A and Trimethoprim (TMP) administered by i/v injection, cats
# Format: in vivo
# APPLIED_CONDITIONS: female, cat, serum, intravenous, 2 mg/kg, cat 2; 0 hours post inj.; i/v injection at 2 mg/kg; read-out: Serum conc. of TMP
MEASUREMENT_LABEL: concentration at 0 h (ng/mL)
Kindly answer with a numeric value in ng/mL, unit omitted.

Reported concentration at 0 h of COc1cc(Cc2cnc(N)nc2N)cc(OC)c1OC : 0

====

# EXPERIMENT_NOTES: Comparison of bioavailability of Compound A and Trimethoprim (TMP) administered by i/v injection, cats
# Type: in vivo
# APPLIED_CONDITIONS: female, cat, serum, intravenous, 2 mg/kg, cat 1; 24 hours post inj.; i/v injection at 2 mg/kg; read-out: Serum conc. of TMP
MEASUREMENT_LABEL: concentration at 24 h (ng/mL)
Give a bare numeral; the unit ng/mL is implied.

Lab note: measured concentration at 24 h of COc1cc(Cc2cnc(N)nc2N)cc(OC)c1OC [TMP, trimethoprim] was 0

====

# EXPERIMENT_NOTES: Comparison of bioavailability of Compound A and Trimethoprim (TMP) administered by i/v injection, dogs
# Type: in vivo
# APPLIED_CONDITIONS: male, beagle, serum, intravenous; dog M; 30 hours post inj.; i/v injection at 2 mg/kg; read-out: Serum conc. of TMP
MEASUREMENT_LABEL: concentration at 30 h
Enter the number, and then the unit.

The molecule listed as COc1cc(Cc2cnc(N)nc2N)cc(OC)c1OC shows concentration at 30 h equal to 0 µg/mL

====

# EXPERIMENT_NOTES: Comparison of bioavailability of Compound A and Trimethoprim (TMP) administered by i/v injection, dogs
# Format: in vivo
# APPLIED_CONDITIONS: male, beagle, serum, intravenous; dog M; 5 hours post inj.; i/v injection at 2 mg/kg; read-out: Serum conc. of TMP
MEASUREMENT_LABEL: concentration at 5 h (µg/mL)
Give just the number in µg/mL; leave the unit off.

// field: concentration at 5 h; key: COc1cc(Cc2cnc(N)nc2N)cc(OC)c1OC [TMP, trimethoprim] ; value = 0.4

====

# EXPERIMENT_NOTES: Comparison of bioavailability of Compound A and Trimethoprim (TMP) administered by i/v injection, cats
# Assay type: in vivo
# APPLIED_CONDITIONS: female, cat, serum, intravenous, 2 mg/kg, cat 3; 24 hours post inj.; i/v injection at 2 mg/kg; read-out: Serum conc. of Compound A
MEASUREMENT_LABEL: concentration at 24 h (µg/mL)
The reply should be a number in µg/mL, with the unit left off.

The compound Cc1cc(Cc2cnc(N)nc2N)c2cccnc2c1N(C)C [Compound A] showed concentration at 24 h equal to 0
